Data origin, for the record: PubChem BioAssay AID1963967

test system: 855422-203-R-J1-PDC spheroids with HUVEC/MSC, viability; assay: Anticancer human tumor 855422-203-R-J1-PDC patient-derived bladder carcinoma cell line growth inhibition [PI3K]; settings: second compound 0.01 µM; first compound 0.0316 µM; stronger effect = lower value;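 further: agents incubated with spheroids for one week before read-out; 100% = DMSO vehicle-treated control wells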
measuredAttribute: viability, T/C (%)

>>> resultvalue("Cn1ncc(Cl)c1-c1cc(C(=O)NC(CN)Cc2cccc(F)c2)sc1Cl (stereo not given) + COc1c(OCCCN2CCOCC2)ccc2c3n(c(=NC(=O)c4cnc(N)nc4)nc12)CCN3")
77.8
>>> resultvalue("C[C@@H](NC(=O)c1ncnc(N)c1Cl)c1ncc(C(=O)Nc2cc(C(F)(F)F)c(Cl)cn2)s1 + COc1c(OCCCN2CCOCC2)ccc2c3n(c(=NC(=O)c4cnc(N)nc4)nc12)CCN3")
80
>>> resultvalue("C#Cc1c(F)ccc2cc(O)cc(-c3ncc4c(N5CC6CCC(C5)N6)nc(OCC56CCCN5CC(F)C6)nc4c3F)c12 (stereo not given) + CC(Nc1ccc2c(c1)OCCn1cc(N3C(=O)OCC3C(F)F)nc1-2)C(N)=O")
106
>>> resultvalue("CC(Cn1ccc(-c2ccc(C#N)c(Cl)c2)n1)NC(=O)c1cc(C(C)O)[nH]n1 (stereo not given) + CC(Nc1ccc2c(c1)OCCn1cc(N3C(=O)OCC3C(F)F)nc1-2)C(N)=O")
105
>>> resultvalue("CCN1CCN(Cc2ccc(Nc3ncc(F)c(-c4cc(F)c5nc(C)n(C(C)C)c5c4)n3)nc2)CC1 + CC(Nc1ccc2c(c1)OCCn1cc(N3C(=O)OCC3C(F)F)nc1-2)C(N)=O")
89.7
